This listing pairs sequences with measured furin cleavage Z-score.
Target: furin, P09958;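 also: purified furin at 1:10 enzyme:substrate in 50 mM HEPES pH 7.5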
Sequence (P09958 whole entry): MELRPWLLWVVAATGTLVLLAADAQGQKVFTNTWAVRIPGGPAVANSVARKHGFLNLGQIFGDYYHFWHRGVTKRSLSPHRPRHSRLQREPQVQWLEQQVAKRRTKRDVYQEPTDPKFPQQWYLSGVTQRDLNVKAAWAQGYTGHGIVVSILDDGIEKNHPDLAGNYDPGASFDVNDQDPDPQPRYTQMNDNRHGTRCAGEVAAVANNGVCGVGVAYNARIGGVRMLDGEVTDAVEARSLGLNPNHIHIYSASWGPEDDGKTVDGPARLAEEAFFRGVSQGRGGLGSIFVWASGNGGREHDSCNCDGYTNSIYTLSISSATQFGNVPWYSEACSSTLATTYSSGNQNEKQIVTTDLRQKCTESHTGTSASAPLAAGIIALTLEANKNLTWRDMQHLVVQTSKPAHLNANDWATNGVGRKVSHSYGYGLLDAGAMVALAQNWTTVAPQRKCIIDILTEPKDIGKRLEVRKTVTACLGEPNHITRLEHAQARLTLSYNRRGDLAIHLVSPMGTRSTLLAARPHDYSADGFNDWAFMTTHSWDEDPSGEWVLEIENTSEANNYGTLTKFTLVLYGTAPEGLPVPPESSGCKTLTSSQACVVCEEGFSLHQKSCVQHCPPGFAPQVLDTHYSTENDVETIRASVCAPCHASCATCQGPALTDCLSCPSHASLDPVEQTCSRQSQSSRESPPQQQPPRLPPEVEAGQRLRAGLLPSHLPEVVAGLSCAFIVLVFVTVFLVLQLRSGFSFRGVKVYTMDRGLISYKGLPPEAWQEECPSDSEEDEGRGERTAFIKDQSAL
Experiment: furin cleavage Z-score vs untreated control; higher = more cleavage, active = 3.5 or more, inactive = 1 or less, 8 variable residues between constant flanks
Conditions: 30 min
The list shows a part of the results. The true hit rate is not given.

Observe how each entry below is paired with its result.
Residues | Experimental result
CARRSRSSYTAGNASASA [FS-3070] | 2.05
CARGPRAVSTAGNASASA [FS-2334] | 1.4

From here, focus on the item given below.
Query string: Any idea what furin cleavage Z-score was measured for CARRVRIVSRAGNASASA [FS-1923] ?
Result string: 1.35
